Source: ChEMBL document CHEMBL4616590

target: Beta-glucuronidase (Escherichia coli (strain K12), UniProt P05804); test: Inhibition of Escherichia coli beta-glucuronidase using p-nitrophenyl-beta-D-glucuronide as substrate
Sequence (P05804 whole entry): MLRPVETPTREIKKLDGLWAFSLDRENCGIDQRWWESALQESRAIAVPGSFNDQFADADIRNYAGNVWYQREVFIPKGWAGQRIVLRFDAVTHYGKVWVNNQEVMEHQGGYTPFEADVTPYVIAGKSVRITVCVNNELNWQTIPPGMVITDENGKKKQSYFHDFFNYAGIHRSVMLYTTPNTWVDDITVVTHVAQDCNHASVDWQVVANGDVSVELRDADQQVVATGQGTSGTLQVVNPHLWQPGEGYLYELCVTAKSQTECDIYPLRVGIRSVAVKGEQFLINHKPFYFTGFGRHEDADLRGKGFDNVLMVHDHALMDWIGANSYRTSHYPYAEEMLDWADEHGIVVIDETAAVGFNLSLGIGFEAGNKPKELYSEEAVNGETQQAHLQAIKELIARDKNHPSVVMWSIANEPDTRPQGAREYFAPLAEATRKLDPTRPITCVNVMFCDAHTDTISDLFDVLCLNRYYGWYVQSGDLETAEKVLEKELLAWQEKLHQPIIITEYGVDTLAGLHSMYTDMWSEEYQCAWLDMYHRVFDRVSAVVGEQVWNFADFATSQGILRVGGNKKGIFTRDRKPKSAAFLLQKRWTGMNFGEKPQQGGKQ
pIC50: −log10 of the molar value.

[
  {
    "Compound": "CC1(C)CCC2(C(=O)O)CC[C@]3(C)C(=CC[C@@H]4[C@@]5(C)[C@H](O)C[C@H](O)[C@@](C)(CO)[C@@H]5CC[C@]43C)[C@@H]2C1 (stereo partly specified)",
    "pIC50": 4.20
  }
]

====

molecular target: Beta-glucuronidase (Escherichia coli (strain K12)); experiment: Inhibition of Escherichia coli beta-glucuronidase
pIC50: −log10 of the molar value.

[
  {
    "Structure Smiles": "CC1(C)[C@@H](O[C@H]2O[C@H](C(=O)O)[C@@H](O)[C@H](O)[C@H]2O[C@@H]2O[C@H](C(=O)O)[C@@H](O)[C@H](O)[C@H]2O)CC[C@]2(C)[C@H]3C(=O)C=C4[C@@H]5C[C@@](C)(C(=O)O)CC[C@]5(C)CC[C@@]4(C)[C@]3(C)CC[C@@H]12",
    "pIC50": 4.92
  },
  {
    "Structure Smiles": "CC(=O)N[C@H]1[C@@H](O)[C@H](O)[C@H](CO)N[C@@H]1Cc1ccccc1",
    "pIC50": 4.04
  },
  {
    "Structure Smiles": "CC(C)=CCc1c(-c2ccc(O)cc2O)oc2c([C@H]3C=C(C)C[C@@H](c4ccc(O)cc4O)[C@@H]3C(=O)c3ccc(O)cc3O)c(O)cc(O)c2c1=O",
    "pIC50": 5.80
  }
]
